# credit: patent US20240101528A1

- tested-target: recombinant guanylate cyclase reporter cell line (Rattus norvegicus, UniProt P20595)
- Construct: expressed in transfected cells
- assay-remarks: Effect on a recombinant guanylate cyclase reporter cell line
- Format: cell-based
- stated-conditions: half maximal effective concentration
readout: EC50 (nM)

Study these solved cases before continuing.
{"columns": ["molecule", "tested-target", "measurement-units", "EC50"],
 "data": [
  ["O=C(O)c1cnn(C2CCCN(c3cc(Cl)ccc3-c3ccc(N4CCN(CC5CC5(F)F)CC4)cc3)C2)c1C(F)F (single isomer, unassigned; diastereomer 4) [Example 31]", "recombinant guanylate cyclase reporter cell line (Rattus norvegicus, UniProt P20595)", "nM", 5.1],
  ["O=C(O)c1cnn(C2CCCN(c3cc(Cl)ccc3-c3ccc(C4CN(CCC(F)(F)F)C4)cc3)C2)c1C(F)F (single isomer, unassigned; enantiomer 2) [Example 59]", "recombinant guanylate cyclase reporter cell line (Rattus norvegicus, UniProt P20595)", "nM", 8.7],
  ["CCN1CCN(c2ccc(-c3ccc(Cl)cc3N3CCCC(n4ncc(C(=O)O)c4C(F)F)C3)cc2)CC1 (single isomer, unassigned; enantiomer 1) [Example 3]", "recombinant guanylate cyclase reporter cell line (Rattus norvegicus, UniProt P20595)", "nM", 24.6],
  ["O=C(O)c1cnn(C2CCCN(c3cc(Cl)ccc3-c3ccc(N4CCCC4)cc3)C2)c1C(F)F (single isomer, unassigned; enantiomer 1) [Example 44]", "recombinant guanylate cyclase reporter cell line (Rattus norvegicus, UniProt P20595)", "nM", 45]
]}

(1) O=C(O)c1cnn(C2CCCN(c3cc(Cl)ccc3-c3ccc(N4CCN(C5COC5)CC4)cc3)C2)c1C(F)F (single isomer, unassigned; enantiomer 1) [Example 42]
(2) O=C(O)c1cnn(C2CCCN(c3cc(Cl)ccc3-c3ccc(N4CCN(C5COC5)CC4)cc3)C2)c1C(F)F (single isomer, unassigned; enantiomer 2) [Example 43]
(3) O=C(O)c1cnn(C2CCCN(c3cc(Cl)ccc3-c3ccc(N4CCN(CC(F)(F)F)CC4)nc3)C2)c1C(F)F (single isomer, unassigned; enantiomer 2) [Example 65]
**Query** Parameters: sort_field (EC50), sort_dir (desc). # respond with the labels, arranged in the requested order
**Result** 1, 2, 3
(1: 71 nM, 2: 42.5 nM, 3: 6.9 nM)

(a) O=C(O)c1cnn(C2CCCN(c3cc(Cl)ccc3-c3ccc(N4CCCC4)cc3)C2)c1C(F)F (single isomer, unassigned; enantiomer 2) [Example 45]
(b) O=C(O)c1cnn(C2CCCN(c3cc(Cl)ccc3-c3ccc(N4CCN(C5CC5)CC4)cc3)C2)c1C(F)F (single isomer, unassigned; enantiomer 1) [Example 8]
(c) O=C(O)c1cnn(C2CCCN(c3cc(Cl)ccc3-c3ccc(N4CCN(C(=O)[C@H]5C[C@H]5F)CC4)cc3)C2)c1C(F)F (single isomer, unassigned; stereoisomer 2) [Example 35]
(d) O=C(O)c1cnn(C2CCCN(c3cc(Cl)ccc3-c3ccc(N4CCN(CC5CC5(F)F)CC4)cc3)C2)c1C(F)F (single isomer, unassigned; diastereomer 3) [Example 30]
**Query** Number of molecules to sort: 4. Sort criterion: EC50, ascending. # respond with the labels, arranged in the requested order
**Result** d, c, b, a
(d: 2 nM, c: 11.3 nM, b: 24.5 nM, a: 42.5 nM)

(A) O=C(O)c1cnn(C2CCCN(c3cc(Cl)ccc3-c3ccc(C4CN(CC(F)(F)F)C4)cc3)C2)c1C(F)F (single isomer, unassigned; enantiomer 2) [Example 58]
(B) O=C(O)c1cnn(C2CCCN(c3cc(Cl)ccc3-c3ccc(N4CCN(CC5(C(F)(F)F)CC5)CC4)cc3)C2)c1C(F)F (single isomer, unassigned; enantiomer 2) [Example 40]
**Query** Decide: A or B , by lowest recorded EC50. Write the label of whichever entry you select.
**Result** B
(B: 11.8 nM, A: 31.5 nM)

(1) CN1CCN(c2ccc(-c3ccc(Cl)cc3N3CCCC(n4ncc(C(=O)O)c4C(F)F)C3)cc2)CC1 (single isomer, unassigned; enantiomer 2) [Example 2]
(2) CCN1CCN(c2ccc(-c3ccc(C(F)(F)F)cc3N3CCCC(n4ncc(C(=O)O)c4C(F)F)C3)cc2)CC1 (single isomer, unassigned; enantiomer 1) [Example 73]
(3) CC(C)C(=O)N1CCN(c2ccc(-c3ccc(Cl)cc3N3CCCC(n4ncc(C(=O)O)c4C(F)F)C3)cc2)CC1 (single isomer, unassigned; enantiomer 2) [Example 48]
**Query** Parameters: sort_field (EC50), sort_dir (desc). # respond with the labels, arranged in the requested order
**Result** 2, 1, 3

* * *

- assay-remarks: Pharmacokinetic parameters following oral administration in rats
- Format: in vivo, male Wistar rats
- stated-conditions: bioavailability
readout: F (%)

Study these solved cases before continuing.
{"columns": ["molecule", "measurement-units", "F"],
 "data": [
  ["CCCN1CCN(c2ccc(-c3ccc(Cl)cc3N3CCCC(n4ncc(C(=O)O)c4C(F)F)C3)cc2)CC1 (single isomer, unassigned; enantiomer 2)", "%", 59.9],
  ["O=C(O)c1cnn(C2CCCN(c3cc(Cl)ccc3-c3ccc(N4CCN(CC(F)(F)F)CC4)cc3)C2)c1C(F)F (single isomer, unassigned; enantiomer 1) [Example 20]", "%", 91.7],
  ["O=C(O)c1cnn(C2CCCN(c3cc(Cl)ccc3-c3ccc(N4CCN(CC5CC5)CC4)cc3)C2)c1C(F)F (single isomer, unassigned; enantiomer 2)", "%", 58.2]
]}

(I) O=C(O)c1cnn(C2CCCN(c3cc(Cl)ccc3-c3ccc(N4CCN(CC(F)F)CC4)cc3)C2)c1C(F)F (single isomer, unassigned; enantiomer 2)
(II) O=C(O)c1cnn(C2CCCN(c3cc(Cl)ccc3-c3ccc(N4CCN(CC(F)(F)F)CC4)cc3)C2)c1C(F)F (single isomer, unassigned; enantiomer 2) [Example 21]
(III) O=C(O)c1cnn(-c2cccc(-c3cc(Cl)ccc3-c3ccc(N4CCN(CC5CC5)CC4)cc3)n2)c1C(F)(F)F [174 (WO2012/058132), reference compound]
**Query** Number of molecules to sort: 3. Sort criterion: F, ascending. # respond with the labels, arranged in the requested order
**Result** I, II, III

* * *

- tested-target: recombinant guanylate cyclase reporter cell line (Rattus norvegicus, UniProt P20595)
- Sequence (P20595 1-619): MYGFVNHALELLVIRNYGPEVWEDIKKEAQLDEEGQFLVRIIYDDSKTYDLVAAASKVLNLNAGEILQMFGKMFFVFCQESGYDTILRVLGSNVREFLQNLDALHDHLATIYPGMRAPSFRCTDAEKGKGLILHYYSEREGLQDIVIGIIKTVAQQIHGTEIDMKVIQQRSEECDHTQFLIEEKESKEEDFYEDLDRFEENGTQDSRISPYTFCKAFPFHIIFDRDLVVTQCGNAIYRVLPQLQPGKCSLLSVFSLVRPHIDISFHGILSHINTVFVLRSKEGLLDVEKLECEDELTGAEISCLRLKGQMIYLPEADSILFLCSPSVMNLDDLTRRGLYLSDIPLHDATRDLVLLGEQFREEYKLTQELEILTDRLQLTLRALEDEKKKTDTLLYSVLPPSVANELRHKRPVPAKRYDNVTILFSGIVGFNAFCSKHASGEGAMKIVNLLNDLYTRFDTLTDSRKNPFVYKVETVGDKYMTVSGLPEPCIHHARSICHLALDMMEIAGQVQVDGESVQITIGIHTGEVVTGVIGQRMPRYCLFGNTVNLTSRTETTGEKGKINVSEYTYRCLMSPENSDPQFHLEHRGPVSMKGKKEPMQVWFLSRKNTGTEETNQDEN
- Sequence (P19686 1-690 partner): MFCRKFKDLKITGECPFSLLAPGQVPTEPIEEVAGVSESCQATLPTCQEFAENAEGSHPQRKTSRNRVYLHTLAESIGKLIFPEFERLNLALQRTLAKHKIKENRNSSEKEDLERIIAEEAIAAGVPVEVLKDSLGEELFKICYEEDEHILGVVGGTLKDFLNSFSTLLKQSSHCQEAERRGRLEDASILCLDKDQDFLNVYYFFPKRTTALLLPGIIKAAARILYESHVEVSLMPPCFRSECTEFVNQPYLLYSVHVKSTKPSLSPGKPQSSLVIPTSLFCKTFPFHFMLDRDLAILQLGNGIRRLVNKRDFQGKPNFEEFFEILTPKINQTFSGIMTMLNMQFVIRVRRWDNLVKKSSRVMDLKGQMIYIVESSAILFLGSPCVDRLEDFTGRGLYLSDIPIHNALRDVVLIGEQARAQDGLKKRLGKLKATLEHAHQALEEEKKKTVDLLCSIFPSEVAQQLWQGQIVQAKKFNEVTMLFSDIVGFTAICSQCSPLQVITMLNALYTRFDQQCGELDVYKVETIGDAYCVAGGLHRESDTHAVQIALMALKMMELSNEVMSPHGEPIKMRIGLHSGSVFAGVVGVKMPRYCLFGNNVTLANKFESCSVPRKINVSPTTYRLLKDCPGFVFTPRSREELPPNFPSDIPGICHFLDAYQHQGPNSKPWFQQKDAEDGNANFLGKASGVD
- assay-remarks: Effect on a recombinant guanylate cyclase reporter cell line
- stated-conditions: half maximal effective concentration
pEC50: −log10 of the molar value.
readout: pEC50

Study these solved cases before continuing.
{"columns": ["compound", "tested-target", "pEC50"],
 "data": [
  ["O=C(O)c1cnn(C2CCCN(c3cc(Cl)ccc3-c3ccc(N4CCN(CCOC(F)(F)F)CC4)cc3)C2)c1C(F)F (single isomer, unassigned; enantiomer 2) [Example 26]", "recombinant guanylate cyclase reporter cell line (Rattus norvegicus, UniProt P20595)", 8.19],
  ["N#CCCN1CCN(c2ccc(-c3ccc(Cl)cc3N3CCCC(n4ncc(C(=O)O)c4C(F)F)C3)cc2)CC1 (single isomer, unassigned; enantiomer 2) [Example 46]", "recombinant guanylate cyclase reporter cell line (Rattus norvegicus, UniProt P20595)", 8.77],
  ["O=C(O)c1cnn(C2CCCN(c3cc(Cl)ccc3-c3ccc(N4CCN(C(=O)C5CC5)CC4)cc3)C2)c1C(F)F (single isomer, unassigned; enantiomer 2) [Example 50]", "recombinant guanylate cyclase reporter cell line (Rattus norvegicus, UniProt P20595)", 8.72],
  ["CCN1CCN(c2ccc(-c3ccc(C(F)(F)F)cc3N3CCCC(n4ncc(C(=O)O)c4C(F)F)C3)cc2)CC1 (single isomer, unassigned; enantiomer 2) [Example 74]", "recombinant guanylate cyclase reporter cell line (Rattus norvegicus, UniProt P20595)", 7.10],
  ["O=C(O)c1cnn(C2CCCN(c3cc(Cl)ccc3-c3ccc(N4CCN(CC5CCC5)CC4)cc3)C2)c1C(F)F (single isomer, unassigned; enantiomer 2) [Example 14]", "recombinant guanylate cyclase reporter cell line (Rattus norvegicus, UniProt P20595)", 7.88],
  ["CN1CCN(c2ncc(-c3ccc(Cl)cc3N3CCCC(n4ncc(C(=O)O)c4C(F)F)C3)cn2)CC1 (single isomer, unassigned; enantiomer 2) [Example 71]", "recombinant guanylate cyclase reporter cell line (Rattus norvegicus, UniProt P20595)", 7.04]
]}

(I) Cc1cc(N2CCN(CC(F)(F)F)CC2)ncc1-c1ccc(Cl)cc1N1CCCC(n2ncc(C(=O)O)c2C(F)F)C1 (single isomer, unassigned; enantiomer 2) [Example 69]
(II) CC(F)(F)CN1CCN(c2ccc(-c3ccc(Cl)cc3N3CCCC(n4ncc(C(=O)O)c4C(F)F)C3)cc2)CC1 (single isomer, unassigned; enantiomer 2) [Example 25]
**Query** Decide: I or II , by lowest recorded pEC50. Write the label of whichever entry you select.
**Result** I
(I: 7.34, II: 8.62)

(1) O=C(O)c1cnn(C2CCCN(c3cc(Cl)ccc3-c3ccc(N4CCN(CC(F)F)CC4)cc3)C2)c1C(F)F (single isomer, unassigned; enantiomer 2) [Example 19]
(2) CC(C)(C)CN1CCN(c2ccc(-c3ccc(Cl)cc3N3CCCC(n4ncc(C(=O)O)c4C(F)F)C3)cc2)CC1 (single isomer, unassigned; enantiomer 2) [Example 13]
**Query** Decide: 1 or 2 , by lowest recorded pEC50. Write the label of whichever entry you select.
**Result** 2
